Source: PubChem BioAssay (NCI)

tested on: OVCAR-8 ovarian; test: NCI tumour cell line growth inhibition, 48 h
Answer each item with its documented TGI.

Looking up CCOC(=O)C(C)(C)Oc1ccc2c(-c3ccc(Cl)cc3)cc(=O)oc2c1 , I see its TGI listed as > 100 µM

Sample CN(/N=C\c1ccc2ccccc2c1)C1=NCCCCN1 ; TGI observed: > 100 µM

Value of measured TGI for the entry NC(=O)N(O)c1cccc(Br)c1 : > 100 µM

Entry CC(=O)c1cccc(NC2C(N)C(NC(=O)N(C)C)(C(C)O)C(C)(O)C2(O)COC(=O)c2c(C)cccc2O)c1 (stereo not given) — recorded TGI = 0.131 µM

Please fill in: TGI reported for C=C1C(C)C2C(Cc3ccccc3)NC(=O)C23C(OC(C)=O)/C=C/C(C)(O)CC(C)C/C=C/C3C1O (stereo not given) = > 100 µM

Dear colleague, could you please provide TGI for the compounds listed below?
1. COc1ccc2c(c1)c1cc(OC)ccc1n2CCCCOc1ccc(-c2c3ccccc3c(-c3ccc(OCCCCn4c5ccc(OC)cc5c5cc(OC)ccc54)cc3)c3ccccc23)cc1
2. CC[C@@H]1OC2(C)CC(S(=O)(=O)c3ccccc3)CC1O2 (stereo not given in full)
3. O=[As](O)(O)c1ccc(Cc2ccc([As](=O)(O)O)cc2)cc1
4. O/N=C\c1cc(O)c(O)c(/C=N/O)c1
5. O=C(O)c1ccccc1/C=N\NC1=NCCN1

Output:
["> 100 µM", "> 100 µM", "1.35 µM", "> 100 µM", "> 100 µM"]

====

system: SF-295 CNS; assay: NCI tumour cell line growth inhibition, 48 h
Would you mind telling me the reported TGI of each entry?

Hi team, please reply with TGI for each item in this list.
1. CCC1(CN(C)C)CC/C(=C\c2ccc3c(c2)OCO3)C1=O (stereo not given)
2. COC1=C(OC)CCC(/C(C#N)=C/c2ccc(OC)c(OC)c2)=C1
3. CSC(=NCCN=C(NS(=O)(=O)c1ccc(Cl)cc1)SC)NS(=O)(=O)c1ccc(Cl)cc1
4. O=c1[nH]c(=S)[nH]c(O)c1/C=C1\C=CC=N1
5. C[C@@H]1CCC2[C@@H](C)C(=O)O[C@@H]3C4C[C@@H]1[C@@]23OO[C@@]4(C)O (stereo not given in full)
6. CCC1(OC(C)=O)C(=O)OCc2c1cc1n(c2=O)Cc2cc3ccccc3nc2-1 (stereo not given)
7. CC(=O)c1cn(-c2ccc(Cl)cc2)c(=O)c2c(N)n[nH]c12
8. CN1CCN(c2ccc3[nH]c(C4=C(O)c5nc(CO)n(C)c5C(=O)C4=O)nc3n2)CC1

Output:
> 100 µM
> 100 µM
> 100 µM
82.4 µM
> 100 µM
> 100 µM
> 100 µM
> 100 µM

Look up TGI for the entries below, preserving their order.
1. Cc1nc(C(N)=S)sc1C(=O)/C=C/c1cccc(O)c1
2. Cc1ccc2[nH]c3c(C)c4ccncc4c(C)c3c2c1

Output:
["> 100 µM", "2.32 µM"]

====

system: K-562 leukemia; experiment: NCI tumour cell line growth inhibition, 48 h
Parameter: TGI

Field: example entries. Status: answers known.
For reference, reported TGI for Cc1cc2c(-c3ccccc3)cc(=O)[nH]c2cc1N stands at > 100 µM

// sample COc1cc2c(cc1C)n(O)c(C)c(C(=O)C/C(=N/NC(=O)C[N+](C)(C)C)C(=O)Nc1cccc(Cl)c1C)[n+]2=O , its TGI was > 100 µM

Measured TGI of c1ccc(-c2cc(-c3cc(-c4ccccc4)n(-c4ccccc4)n3)nn2-c2ccccc2)cc1 : > 100 µM

For Cc1n[nH]c(=O)n1N=C(c1ccccc1)c1ccccc1 the compound record lists TGI as > 100 µM

For record CC(C)(C)CC(C)(C)c1ccc(OCCOCCSC(=N)N)cc1 the listed TGI is 3.58 µM

For each of the items listed, what is its TGI?
1. Cn1ccnc1C(=O)/C=C/c1ccc(C(=O)Nc2nc3ccccc3[nH]2)cc1
2. COc1ccc(/C=C(\C#N)c2cc3ccccc3n2C)cc1
3. C=C(C)C1/C=C(/C(C)C)CC[C@]2(C)O[C@@H]2CC[C@H](C)CC1=O (stereo not given in full)
4. COc1ccccc1-n1c(SCc2cc(OC)c(OC)c(OC)c2)nc2ccc(Cl)cc2c1=O
5. Cn1c(O)c(C(=O)Nc2ccc([N+](=O)[O-])cc2)c(=O)n(C)c1=S

Output:
1. > 25 µM
2. > 100 µM
3. > 100 µM
4. > 100 µM
5. > 50.9 µM
